# System: ACHN
# assay-procedure: NCI tumour cell line growth inhibition, 48 h
The source made the active and inactive calls. Rule as the data show it: active = GI50 up to about 1.1 µM and inactive = higher.
quantity-name: GI50

1. CC1(C)COC2C(N(Cc3ccccc3)Cc3ccccc3)C(=O)N21 (stereo unspecified) : 35.6 µM (inactive)
2. COP(=O)(OC)[C@@](O)(c1ccccc1)[C@@H](O)[C@H](O)c1ccccc1 : > 100 µM (inactive)
3. C=CCc1cccc2cc(C(=O)Nc3ccccc3)c(=N)oc12 : 10.1 µM (inactive)
4. CC(C)C12CCC3(CCC4C(C)(C(=O)O)CCCC4(C)C3C1)C(CN)C2 (stereo unspecified) : 33.4 µM (inactive)
5. CCCCCCCCCCCCCC(=O)CBr : 15 µM (inactive)
6. CN(C)CCCNc1c2c(nc3ccc(Cl)cc13)CCCC2 : 16.1 µM (inactive)
